Just for reference, the supplement of paper PMC10567573 is where these values come from.

B1: NR2F2 (parent)
chain: NIPFFPDLQITDQVALLRLTWSEL

Variants of: B1
Assay: protein stability index of a GFP-peptide fusion (GPS, HEK-293T) (PSI 1-6); higher = more stable;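 note: lentivirally expressed fusions sorted by FACS into six bins by GFP to DsRed ratio, PSI derived from sequencing read proportions per bin multiplied by bin number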
Conditions: c terminus: a fixed tail appended
Classification by protein stability index follows these ranges: band A (below 2), band B (2 to below 3), band C (3 or more)

{"SEQUENCE_CODE": "QIPFFPDLQITDQVALLRLTWSEL [N1Q]", "DISCRETE_LABEL": "band A"}
{"SEQUENCE_CODE": "NIPFFPDLQITDQVALLRLTWYEL [S22Y]", "DISCRETE_LABEL": "band C"}
{"SEQUENCE_CODE": "NIPFFPDLQITDQVALLRLTWSTL [E23T]", "DISCRETE_LABEL": "band C"}
{"SEQUENCE_CODE": "NIPFFPDLQITWQVALLRLTWSEL [D12W]", "DISCRETE_LABEL": "band C"}
{"SEQUENCE_CODE": "NIPFFPDLQITDQVALLRLAWSEL [T20A]", "DISCRETE_LABEL": "band A"}
{"SEQUENCE_CODE": "NIPHFPDLQITDQVALLRLTWSEL [F4H]", "DISCRETE_LABEL": "band B"}
{"SEQUENCE_CODE": "NIPFFPDLQITDQVALLCLTWSEL [R18C]", "DISCRETE_LABEL": "band B"}
{"SEQUENCE_CODE": "NIPFFPDLQINDQVALLRLTWSEL [T11N]", "DISCRETE_LABEL": "band A"}
{"SEQUENCE_CODE": "NIPFYPDLQITDQVALLRLTWSEL [F5Y]", "DISCRETE_LABEL": "band B"}
{"SEQUENCE_CODE": "NIPFFPDLEITDQVALLRLTWSEL [Q9E]", "DISCRETE_LABEL": "band B"}
{"SEQUENCE_CODE": "NIPPFPDLQITDQVALLRLTWSEL [F4P]", "DISCRETE_LABEL": "band B"}
{"SEQUENCE_CODE": "NIPFFPDLQITDQVALLRLTWSAL [E23A]", "DISCRETE_LABEL": "band B"}
{"SEQUENCE_CODE": "NIPFFPDLQITDQVALLRLCWSEL [T20C]", "DISCRETE_LABEL": "band B"}
{"SEQUENCE_CODE": "NIPFFPDLQITDQAALLRLTWSEL [V14A]", "DISCRETE_LABEL": "band A"}
{"SEQUENCE_CODE": "NIPFFPDLQITDQVDLLRLTWSEL [A15D]", "DISCRETE_LABEL": "band A"}
{"SEQUENCE_CODE": "NIPFFPDLQITYQVALLRLTWSEL [D12Y]", "DISCRETE_LABEL": "band C"}
{"SEQUENCE_CODE": "NIPFFPDLQATDQVALLRLTWSEL [I10A]", "DISCRETE_LABEL": "band A"}
{"SEQUENCE_CODE": "NIAFFPDLQITDQVALLRLTWSEL [P3A]", "DISCRETE_LABEL": "band C"}
{"SEQUENCE_CODE": "NIPFFPDLQITDQVALLRKTWSEL [L19K]", "DISCRETE_LABEL": "band B"}
{"SEQUENCE_CODE": "NIPFFPDLQITDQWALLRLTWSEL [V14W]", "DISCRETE_LABEL": "band C"}
{"SEQUENCE_CODE": "NIPFFPDLQHTDQVALLRLTWSEL [I10H]", "DISCRETE_LABEL": "band B"}
{"SEQUENCE_CODE": "NIPFFPDLQITDQVALLRLTPSEL [W21P]", "DISCRETE_LABEL": "band B"}
{"SEQUENCE_CODE": "NIPFFPDLQITDQVALLRLTWSWL [E23W]", "DISCRETE_LABEL": "band C"}
{"SEQUENCE_CODE": "NIPFFPDLQITDQVALLRLTWSEM [L24M]", "DISCRETE_LABEL": "band B"}
{"SEQUENCE_CODE": "NIPFFPDLQITDQVALIRLTWSEL [L17I]", "DISCRETE_LABEL": "band C"}
{"SEQUENCE_CODE": "NIPFFPDLQITDQVALLRLTWSML [E23M]", "DISCRETE_LABEL": "band C"}
{"SEQUENCE_CODE": "NIPFFPDLQITDQVALLLLTWSEL [R18L]", "DISCRETE_LABEL": "band B"}
{"SEQUENCE_CODE": "NIPFFPDLQITDQVALLRVTWSEL [L19V]", "DISCRETE_LABEL": "band C"}
{"SEQUENCE_CODE": "NIPFFYDLQITDQVALLRLTWSEL [P6Y]", "DISCRETE_LABEL": "band C"}
{"SEQUENCE_CODE": "NIPFFPDLQITDPVALLRLTWSEL [Q13P]", "DISCRETE_LABEL": "band B"}
{"SEQUENCE_CODE": "NIPMFPDLQITDQVALLRLTWSEL [F4M]", "DISCRETE_LABEL": "band B"}
{"SEQUENCE_CODE": "NIPFFPDLQITDQDALLRLTWSEL [V14D]", "DISCRETE_LABEL": "band A"}
{"SEQUENCE_CODE": "NIPFFPDLQITDQIALLRLTWSEL [V14I]", "DISCRETE_LABEL": "band B"}
{"SEQUENCE_CODE": "NIPFFPDLQITDQVALLPLTWSEL [R18P]", "DISCRETE_LABEL": "band B"}
{"SEQUENCE_CODE": "NIPAFPDLQITDQVALLRLTWSEL [F4A]", "DISCRETE_LABEL": "band B"}
{"SEQUENCE_CODE": "NIPFFPDLQITDQVELLRLTWSEL [A15E]", "DISCRETE_LABEL": "band A"}
{"SEQUENCE_CODE": "NIPFFPDLHITDQVALLRLTWSEL [Q9H]", "DISCRETE_LABEL": "band B"}
{"SEQUENCE_CODE": "NIPFFPDLQILDQVALLRLTWSEL [T11L]", "DISCRETE_LABEL": "band C"}
{"SEQUENCE_CODE": "NIGFFPDLQITDQVALLRLTWSEL [P3G]", "DISCRETE_LABEL": "band B"}
{"SEQUENCE_CODE": "NIPFFPDLQITDQVALLRPTWSEL [L19P]", "DISCRETE_LABEL": "band B"}
{"SEQUENCE_CODE": "NIPFFEDLQITDQVALLRLTWSEL [P6E]", "DISCRETE_LABEL": "band B"}
{"SEQUENCE_CODE": "NIPFFPDLQITDQVHLLRLTWSEL [A15H]", "DISCRETE_LABEL": "band A"}
{"SEQUENCE_CODE": "KIPFFPDLQITDQVALLRLTWSEL [N1K]", "DISCRETE_LABEL": "band B"}
{"SEQUENCE_CODE": "NIPFFPDLQITDQTALLRLTWSEL [V14T]", "DISCRETE_LABEL": "band B"}
{"SEQUENCE_CODE": "NIPFFPDLQITDQVAELRLTWSEL [L16E]", "DISCRETE_LABEL": "band A"}
{"SEQUENCE_CODE": "NIPFFPDLQITDVVALLRLTWSEL [Q13V]", "DISCRETE_LABEL": "band B"}
{"SEQUENCE_CODE": "NIPFFPDLQSTDQVALLRLTWSEL [I10S]", "DISCRETE_LABEL": "band B"}
{"SEQUENCE_CODE": "NIPFFPQLQITDQVALLRLTWSEL [D7Q]", "DISCRETE_LABEL": "band C"}
{"SEQUENCE_CODE": "NIPFFPDLQITDQVALARLTWSEL [L17A]", "DISCRETE_LABEL": "band A"}
{"SEQUENCE_CODE": "NIPFFPDLQITDQVALNRLTWSEL [L17N]", "DISCRETE_LABEL": "band B"}
{"SEQUENCE_CODE": "NIPFFPDLQITDQVALLYLTWSEL [R18Y]", "DISCRETE_LABEL": "band B"}
{"SEQUENCE_CODE": "NIPFFPDLQITLQVALLRLTWSEL [D12L]", "DISCRETE_LABEL": "band B"}
{"SEQUENCE_CODE": "NIPFFPDLMITDQVALLRLTWSEL [Q9M]", "DISCRETE_LABEL": "band B"}
{"SEQUENCE_CODE": "NIPFFPDLQITDQSALLRLTWSEL [V14S]", "DISCRETE_LABEL": "band A"}
{"SEQUENCE_CODE": "NFPFFPDLQITDQVALLRLTWSEL [I2F]", "DISCRETE_LABEL": "band B"}
{"SEQUENCE_CODE": "NRPFFPDLQITDQVALLRLTWSEL [I2R]", "DISCRETE_LABEL": "band A"}
{"SEQUENCE_CODE": "NIPFFPDLQITDQVALLALTWSEL [R18A]", "DISCRETE_LABEL": "band B"}
{"SEQUENCE_CODE": "NIPFFHDLQITDQVALLRLTWSEL [P6H]", "DISCRETE_LABEL": "band B"}
{"SEQUENCE_CODE": "NIPFFPDLQITDQVALLRLIWSEL [T20I]", "DISCRETE_LABEL": "band C"}
{"SEQUENCE_CODE": "NIPFFPDLQITDQVALLTLTWSEL [R18T]", "DISCRETE_LABEL": "band B"}
{"SEQUENCE_CODE": "NIPFFPRLQITDQVALLRLTWSEL [D7R]", "DISCRETE_LABEL": "band B"}
{"SEQUENCE_CODE": "NIPFFPDLQITIQVALLRLTWSEL [D12I]", "DISCRETE_LABEL": "band C"}
{"SEQUENCE_CODE": "NIPFFPDPQITDQVALLRLTWSEL [L8P]", "DISCRETE_LABEL": "band B"}
{"SEQUENCE_CODE": "NIPFTPDLQITDQVALLRLTWSEL [F5T]", "DISCRETE_LABEL": "band A"}
{"SEQUENCE_CODE": "NIPFFPDLQITDQVALLRYTWSEL [L19Y]", "DISCRETE_LABEL": "band A"}
{"SEQUENCE_CODE": "NITFFPDLQITDQVALLRLTWSEL [P3T]", "DISCRETE_LABEL": "band B"}
{"SEQUENCE_CODE": "WIPFFPDLQITDQVALLRLTWSEL [N1W]", "DISCRETE_LABEL": "band B"}
{"SEQUENCE_CODE": "NPPFFPDLQITDQVALLRLTWSEL [I2P]", "DISCRETE_LABEL": "band B"}
{"SEQUENCE_CODE": "NIPFFPDLQITDQVALLRLDWSEL [T20D]", "DISCRETE_LABEL": "band A"}
{"SEQUENCE_CODE": "NIPFFPDLQITDQVALLRLTWSVL [E23V]", "DISCRETE_LABEL": "band A"}
